Where do the numbers come from? From the supplement of paper PMC5908809.

- Tested on: normal primary NK cells, pool 3 (3 donors) (IL-2 2.5 ng/mL)
- method-summary: drug sensitivity score (DSS) (DSS units); higher = more sensitive; extreme values may be limits of the assay
- cond: 72 h
observation-type: drug sensitivity score
Answers are plain numbers.

CCCS(=O)(=O)Nc1ccc(F)c(C(=O)c2c[nH]c3ncc(-c4ccc(Cl)cc4)cc23)c1F [Vemurafenib] (max concentration tested 10000 nM)
0
O=C1CN2Cc3c(ccc(Cl)c3Cl)N=C2N1 [Anagrelide] (max concentration tested 10000 nM)
0

We next turn to a different compound, shown below.
Incoming: Value lookup for drug sensitivity score; key = CCc1cncnc1N1CCN(Cc2nc3ccc(C(F)(F)F)cc3[nH]2)CC1 (max concentration tested 10000 nM)
Outgoing: 0.75

* * *

Assignment: determine reported percent inhibition of viability for the given compounds.
- Test system: normal primary NK cells, pool 3 (3 donors) (IL-2 2.5 ng/mL)
- method-summary: percent inhibition of viability; higher = more inhibition
- cond: 72 h; 10 nM
Numbers only, in %.

Before answering, review these 5 worked examples.
COc1cc(OC2CCN(C)CC2)ccc1Nc1ncc2c(n1)n(C1CCCC1)c(=O)n2C [AZ 3146] (max concentration tested 10000 nM)
1.88
CC(=O)O[C@@]12CO[C@@H]1C[C@H](O)[C@@]1(C)C(=O)[C@H](O)C3=C(C)[C@@H](OC(=O)[C@H](O)[C@@H](NC(=O)OC(C)(C)C)c4ccccc4)C[C@@](O)([C@@H](OC(=O)c4ccccc4)[C@H]21)C3(C)C [Docetaxel] (max concentration tested 1000 nM)
14
CCc1cc2c(cc1N1CCC(N3CCOCC3)CC1)C(C)(C)c1[nH]c3cc(C#N)ccc3c1C2=O [Alectinib] (max concentration tested 1000 nM)
-5.32
CCc1cncnc1N1CCN(Cc2nc3ccc(C(F)(F)F)cc3[nH]2)CC1 (max concentration tested 10000 nM)
7.71
Nc1nc(Cl)nc2c1ncn2[C@H]1C[C@H](O)[C@@H](CO)O1 [Cladribine] (max concentration tested 1000 nM)
18.2

I'm hoping you can list percent inhibition of viability for every compound here, please.
1. COc1cc2/c(=N/c3ccc(Br)cc3F)nc[nH]c2cc1OCC1CCN(C)CC1 [Vandetanib] (max concentration tested 1000 nM)
2. CS(=O)(=O)c1ccc(-c2cnc(N)c(C(=O)Nc3ccccc3)n2)cc1 [VE-821] (max concentration tested 10000 nM)
3. C[C@@H](Nc1cc(F)cc(F)c1)c1cc(C(=O)N(C)C)cc2c(=O)cc(N3CCOCC3)oc12 [AZD-8186] (max concentration tested 1000 nM)
4. CC(=O)O[C@]1(C(C)=O)CC[C@H]2[C@@H]3C=C(C)C4=CC(=O)CC[C@]4(C)[C@H]3CC[C@@]21C [Megestrol acetate] (max concentration tested 10000 nM)
5. COc1c(C)cnc(Cn2cnc3c(Cl)nc(N)nc32)c1C [BIIB021] (max concentration tested 10000 nM)
6. Cc1ccc(-c2cc(C(F)(F)F)nn2-c2ccc(S(N)(=O)=O)cc2)cc1 [Celecoxib] (max concentration tested 10000 nM)
7. Nc1nc2[nH]cnc2c(=S)[nH]1 [Thioguanine] (max concentration tested 10000 nM)

Outgoing:
1: -2.76; 2: 1.35; 3: -7.48; 4: -5.63; 5: -15; 6: 1.86; 7: -0.43

* * *

- Tested on: normal NK cells expanded with K562-aAPC
- method-summary: percent inhibition of viability; higher = more inhibition
- cond: 72 h; IL-2 2.5 ng/mL; 1 nM
Would you kindly list percent inhibition of viability for each of these compounds?
One number for each entry, in %.

COCC(=O)NC/C=C/c1ccc2ncnc(Nc3ccc(Oc4ccc(C)nc4)c(C)c3)c2c1 (max concentration tested 10000 nM)
-7.95
Cn1cc(-c2ccc3nnc(C(F)(F)c4ccc5ncccc5c4)n3n2)cn1 (max concentration tested 10000 nM)
2.09
O=C(Nc1cccnc1)N1CCC(Cc2cccc(Oc3ccc(C(F)(F)F)cn3)c2)CC1 [PF-3845] (max concentration tested 10000 nM)
-4.39
Nc1ccccc1NC(=O)c1ccc(CNC(=O)OCc2cccnc2)cc1 [Entinostat] (max concentration tested 10000 nM)
-3.4
CC(C)c1cc(-c2n[nH]c(=O)n2-c2ccc3c(ccn3C)c2)c(O)cc1O [Ganetespib] (max concentration tested 1000 nM)
-3.48
O=C(c1ccc(OCCN2CCCCC2)cc1)c1c(-c2ccc(O)cc2)sc2cc(O)ccc12 [Raloxifene] (max concentration tested 10000 nM)
-3.9
O=C(Nc1cccc(C(F)(F)F)c1)Nc1cc(S(=O)(=O)NC2CC2)ccc1-c1ccsc1 [AGI-6780] (max concentration tested 10000 nM)
-7.15
COc1cc(N2CCC(N3CCN(C)CC3)CC2)ccc1Nc1ncnc(Nc2ccccc2S(=O)(=O)C(C)C)n1 [ASP3026] (max concentration tested 10000 nM)
0.75

I have 5 compounds here; please give me percent inhibition of viability for each one.
1. C=CC(=O)N1CCC[C@@H](n2nc(-c3ccc(Oc4ccccc4)cc3)c3c(N)ncnc32)C1 [Ibrutinib] (max concentration tested 1000 nM)
2. Nc1ncn([C@@H]2O[C@H](CO)[C@@H](O)[C@H]2O)c(=O)n1 [Azacitidine] (max concentration tested 10000 nM)
3. Nc1nc(Cl)nc2c1ncn2[C@H]1C[C@H](O)[C@@H](CO)O1 [Cladribine] (max concentration tested 1000 nM)
4. Cn1cnc2c(F)c(Nc3ccc(Br)cc3F)c(C(=O)NOCCO)cc21 [Binimetinib] (max concentration tested 1000 nM)
5. CNC(=O)c1ccc(-c2cnc3ncc(Cc4ccc5ncccc5c4)n3n2)cc1F [NVP-INC280] (max concentration tested 1000 nM)

Outgoing:
-5.62
-4.42
-1.55
-5.49
-1.65

* * *

- Test system: NK-92 (IL-2 2.5 ng/mL)
- method-summary: percent inhibition of viability; higher = more inhibition
- cond: 72 h; 10 nM
Exercise: state measured percent inhibition of viability for each of the molecules provided.
Answers are plain numbers, in %.

Completed entries (count: 3):
Nc1nc(N)c2nc(-c3cccc(O)c3)c(-c3cccc(O)c3)nc2n1 [TG100-115] (max concentration tested 10000 nM)
1.92
O=C(Nc1ccc(-c2ccnc(Nc3ccc(N4CCOCC4)cc3)n2)cc1)C1CCCN1 (stereo unspecified) [XL019] (max concentration tested 10000 nM)
-2
O=C1CN2Cc3c(ccc(Cl)c3Cl)N=C2N1 [Anagrelide] (max concentration tested 10000 nM)
-4.98

For every listed record, write down its percent inhibition of viability.
1. CC1(C)CNc2cc(NC(=O)c3cccnc3NCc3ccncc3)ccc21 [Motesanib] (max concentration tested 10000 nM)
2. CC(C)(C)c1cc(NC(=O)Nc2ccc(-c3cn4c(n3)sc3cc(OCCN5CCOCC5)ccc34)cc2)no1 [Quizartinib] (max concentration tested 1000 nM)
3. Nc1nc(F)nc2c1ncn2[C@@H]1O[C@H](CO)[C@@H](O)[C@@H]1O [Fludarabine] (max concentration tested 10000 nM)

Outgoing:
2.14
3.37
-19.1

* * *

- System: normal primary NK cells, pool 2 (3 donors) (IL-2 2.5 ng/mL)
- method-summary: percent inhibition of viability; higher = more inhibition
- cond: 72 h; 100 nM
observation-type: percent inhibition of viability
For clarity, give the value followed by its unit.

CC1(C)CNc2cc(NC(=O)c3cccnc3NCc3ccncc3)ccc21 [Motesanib] (max concentration tested 10000 nM)
3.62%

Please state, for each entry, its recorded percent inhibition of viability.
1. CC[C@H](Nc1ncnc2[nH]cnc12)c1nc2cccc(F)c2c(=O)n1-c1ccccc1 [Idelalisib] (max concentration tested 10000 nM)
2. COc1cc2c(Oc3ccc4[nH]c(C)cc4c3F)ncnc2cc1OCCCN1CCCC1 [Cediranib] (max concentration tested 1000 nM)

Outgoing:
1: 14.8%; 2: -4.99%

* * *

Provide the recorded percent inhibition of viability for the entries that follow.
- Test system: normal primary NK cells, pool 3 (3 donors) (IL-2 2.5 ng/mL)
- method-summary: percent inhibition of viability; higher = more inhibition
- cond: 72 h; 10000 nM
Answers are plain numbers, in %.

COc1cc(N2CCC(N3CCN(C)CC3)CC2)ccc1Nc1ncnc(Nc2ccccc2S(=O)(=O)C(C)C)n1 [ASP3026] (max concentration tested 10000 nM)
13.3
N#CC[C@H](C1CCCC1)n1cc(-c2ncnc3[nH]ccc23)cn1 [Ruxolitinib] (max concentration tested 10000 nM)
74.2
CN1CCC(CNc2ccc3ncc(-c4cccc(OC(F)(F)F)c4)n3n2)CC1 [SGI-1776] (max concentration tested 10000 nM)
100

Would you be so kind as to report percent inhibition of viability for each listed record?
1. O=C(c1ccc(OCCN2CCCCC2)cc1)c1c(-c2ccc(O)cc2)sc2cc(O)ccc12 [Raloxifene] (max concentration tested 10000 nM)
2. CC(C)[C@H]1C(=O)N[C@@H](CCCNC(=N)N)C(=O)NCC(=O)N[C@@H](CC(=O)O)C(=O)N[C@H](Cc2ccccc2)C(=O)N1C [Cilengitide] (max concentration tested 10000 nM)
3. COC1=CC(c2cc3ccccc3[nH]2)=N/C1=C\c1[nH]c(C)cc1C [Obatoclax] (max concentration tested 10000 nM)
4. Cc1cc(C)c(CNC(=O)c2cc(-c3ccc(CN4CCOCC4)cc3)cc3c2cnn3C2CCCC2)c(=O)[nH]1 [EPZ-5687] (max concentration tested 10000 nM)
5. O=c1[nH]cc(F)c(=O)[nH]1 [Fluorouracil] (max concentration tested 10000 nM)
6. CC[C@H](C)C(=O)O[C@H]1C[C@H](O)C=C2C=C[C@H](C)[C@H](CC[C@@H](O)C[C@@H](O)CC(=O)O)[C@H]21 [Pravastatin] (max concentration tested 10000 nM)

Outgoing:
16.6
-10.2
34.5
-4.19
7.07
-0.67

Kindly give each listed record's percent inhibition of viability.
1. O=C(Nc1cccc(C(F)(F)F)c1)Nc1cc(S(=O)(=O)NC2CC2)ccc1-c1ccsc1 [AGI-6780] (max concentration tested 10000 nM)
2. Cc1ccc(NC(=O)c2ccc(CN3CCN(C)CC3)cc2)cc1Nc1nc(-c2cccnc2)cs1 [Masitinib] (max concentration tested 10000 nM)

Outgoing:
1: 8.51; 2: 86.2
